Every entry's value here was drawn from ChEMBL document CHEMBL1123065.

- Test system: Mus musculus
- experiment description: Ability to produce neurological deficit in the rotarod test (10 mice were used per dose, ip)
- Format: functional
Measured ND50, listed per entry.

>  <compound>
CNC(=O)/C(C)=C/c1cccc(C(F)(F)F)c1

>  <ND50>
>75 mg/kg

$$$$
>  <compound>
CNC(=O)/C=C/c1cccc(C(F)(F)F)c1

>  <ND50>
149 mg/kg

$$$$
>  <compound>
CN(C)C(=O)CCC(=O)c1cccc(C(F)(F)F)c1

>  <ND50>
>37.5 mg/kg

$$$$
>  <compound>
CCCN1C(=O)CCC1(O)c1cccc(C(F)(F)F)c1 (centres undefined)

>  <ND50>
>200 mg/kg

$$$$
>  <compound>
CCN1C(=O)CCC1(O)c1cccc(C(F)(F)F)c1 (centres undefined)

>  <ND50>
>75 mg/kg

$$$$

The reported Mus musculus ND50 of CC(C)NC(=O)CCC(=O)c1cccc(C(F)(F)F)c1 is >150 mg/kg

Summary line: CCC(C)NC(=O)CCC(=O)c1cccc(C(F)(F)F)c1 (centres undefined) , Mus musculus, reported ND50 = >150 mg/kg

Form: item CN1C(=O)CCC1(O)c1cccc(Cl)c1 (centres undefined) ; test system Mus musculus; ND50: >150 mg/kg
